# reported self-cleavage; entries follow
B1: LINE1-full (parent)
chain: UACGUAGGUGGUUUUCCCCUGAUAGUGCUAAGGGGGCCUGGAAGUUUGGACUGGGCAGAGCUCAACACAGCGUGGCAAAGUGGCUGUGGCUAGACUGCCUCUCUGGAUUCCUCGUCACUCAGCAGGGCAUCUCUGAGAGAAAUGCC

Variants of: B1
method: self-cleavage, relative activity (ratio to wild type); higher = more cleavage; in vitro, sequencing; the parent is a self-cleaving ribozyme
parameter: self-cleavage

seq-string	parameter	experimental-result
UACGUAGGUGGUUCUCCCCUGAUAGUGCUAAGGGGGCCUGGAAGUUUGGACUGGGCAGAGCUCAACACAGCGUGGCAAAGUGGCUGUGGCUAGACCGCCUCUCUGGAUUCCUCGUCACUCAGCAGGGCAUCUCUGAGAGAAAUGCC [U14C U96C]	self-cleavage	0.18
UACGUAGGUGGUUUUCCCCUGAUAGUGCUAAGGGGGCCUGGAAGUCUGGACUGGGCAGAGCUCAACACAGCGUGGCAAAGUGGCUGUGGCUAGACUGCCUCUCUGGAUUCCUCGUCACUCAGCAGGGCAUCUCUGAGAGAAAGGCC [U46C U143G]	self-cleavage	1.41
UACGUAGGUGGUUUUCCCCUGAUAGUGCUAAGGGGGCCUGGGAGUUUGGACUGGGCAGAGCUCAACACAGCGUGGCAAAGUGGCUGUGGCUAGACUGCCUCUCUGGAUUCCUCGUCACUCAGCAGGGCAUCUCUGAGAGAAAUACC [A42G G144A]	self-cleavage	1.17
UACGUAGGUGGUUUUCCCCUGAUAGUGCCAAGGGGGCCUGGAAGUUUGGACUGGGCAGAGCUCAACACAGCGUGGCAAAGUGGCUGUGGCUAGACUGCCUCUCUGGAUUCCUCGUCACUCAGCAGGGCAUCUCUGAGAGAAGUGCC [U29C A142G]	self-cleavage	1.38
UACGUAGGUGGUUUUCCCCUGAUAGUGCUAAGGGGGCCUGGAAGUUUGGACUGGGCAGAGCUCAACACAGCGUGGCAAAGUGGCUGUGGCUAGACUGCCUCUCUGGAUUCCUCGUCGCUCAGCAGGGCCUCUCUGAGAGAAAUGCC [A117G A129C]	self-cleavage	1.93
UACGUAGGUGGUUUUCCCCUGAUAGUGCUACGGGGGCCUGGAAGUUUGGACUGGGCAGAGCUCAACACAGCGUGGCAAAGUGGCUGUGGCUAGACUGCCUCUCUGGAUUCCUCGUCACUCAGCAGGGCUUCUCUGAGAGAAAUGCC [A31C A129U]	self-cleavage	1.51
UACGUAGGUGGUUUUCCCCUGAUAGUGCUAAGGGGGCCUGGAAGUUUGGACUGGGCAAAGCUCAACACAGCGUGGCAAAGUGGCUGUGGCUAGACUGCCUCUCUGGAUUCCUCGUCACUCAGCAGGGCGUCUCUGAGAGAAAUGCC [G58A A129G]	self-cleavage	0.03
UACGUAGGUGGUUUUCCCCUGAUAGUGCUAAGGGGGCCUGGAAGUUUGGACUGGGCAGAGCUCAACACAGCGUGGCAAAGUGGCUGCGGCUAGACUGCCUCUCUGGAUUCCUCGUCACUCAGCAGGGCAUCUCUGAGAAAAAUGCC [U87C G139A]	self-cleavage	0.14
UACGUAGGUGGUUUUCCCCUGAUAGUGCUAAGGGGGCCUGGAAGUUUGGACUGGGCAGAGGUCAACACAGCGUGGCGAAGUGGCUGUGGCUAGACUGCCUCUCUGGAUUCCUCGUCACUCAGCAGGGCAUCUCUGAGAGAAAUGCC [C61G A77G]	self-cleavage	0.07
UACGUAGGUGGUUUUCCCCUGAUAGUGCUAAGGGGGCCUGGUAGUUUGGACUGGGCAGAGCUCAACACAGCGUGGCAAAGUGGCUGUGGCUAGACUGCCUCUCUGGAUUCCUCGGCACUCAGCAGGGCAUCUCUGAGAGAAAUGCC [A42U U115G]	self-cleavage	1.04
UACGUAGGUGGUUUUCCCCUGAUAGUGCUAAGGGGGCCUGGAAGUUUGGACUGGGCAGAGCUCAACACAGCGUUGCAAAGUGGCUGUGGCCAGACUGCCUCUCUGGAUUCCUCGUCACUCAGCAGGGCAUCUCUGAGAGAAAUGCC [G74U U91C]	self-cleavage	0.59
UACGUAGGUGGUUUUCCCCUGAUAGUGCUAAGGGGGCCUGGAAGUUUGGACUGGGCAGAGCUCAACACGGCGUGGCAAAGUGGCUGUGGCUAGACUGCCUCUCUGGAUCCCUCGUCACUCAGCAGGGCAUCUCUGAGAGAAAUGCC [A69G U109C]	self-cleavage	0.29
UACGUAGGUGGUUUUCCCCUGAUAGUGCUAAGGGGGCCUGGAAGUUUGGACUGGGCAGAGCUCAACACAGCGUGGCAAAGUGGCUGUGGCUUGACUGCCUCUCUGGAUUCCUCGUCACUCAGCAGGGCAUCUCUGAGAGAAAUGCC [A92U]	self-cleavage	0.66
UACGUAGGUGGUUUUCCCCUGAUAGUGCUAAGGGGGCCUGGAAGUUUGGACUGGGCAGAGCUCAACACAGCGUGGCAAAGUGGCCGUGGCUAGACUGCCUCUCAGGAUUCCUCGUCACUCAGCAGGGCAUCUCUGAGAGAAAUGCC [U85C U104A]	self-cleavage	0.08
UACGUAGGUGGUUUUCCCCUGAUAGUGCUAAGGGGGCCUGGACGGUUGGACUGGGCAGAGCUCAACACAGCGUGGCAAAGUGGCUGUGGCUAGACUGCCUCUCUGGAUUCCUCGUCACUCAGCAGGGCAUCUCUGAGAGAAAUGCC [A43C U45G]	self-cleavage	0.66
UACGUAGGUGGUUUUCCCCUGAUAGUGCUAAGGGGGCCUGGAAGUUUGGACUGGGCAGAGCUCAACACAGCGUGGCAAAGUGGCUGUGGCUAGACCGCCUCUCUGGAUUCCUCGUCACUCAGCAGGGCAUCUCUGAGAUAAAUGCC [U96C G139U]	self-cleavage	0.14
UACGUAGGUGGAUUUCCCCUGAUAGUGCUAAGGGGGCCUGGAAGUUUGGACUGGGCGGAGCUCAACACAGCGUGGCAAAGUGGCUGUGGCUAGACUGCCUCUCUGGAUUCCUCGUCACUCAGCAGGGCAUCUCUGAGAGAAAUGCC [U12A A57G]	self-cleavage	1.23
UACGUAGGUGGUUUUCCCAUGAUAGUGCUAAGGGGGCCUGGAAGUUUGGACUGGGCAGGGCUCAACACAGCGUGGCAAAGUGGCUGUGGCUAGACUGCCUCUCUGGAUUCCUCGUCACUCAGCAGGGCAUCUCUGAGAGAAAUGCC [C19A A59G]	self-cleavage	0.13
UACGUAGGUGGUUUUCCCCUGAAAGUGCUAAGGGGGCCUGGAAGUUUGGACUGGGCAGAGCUCAACACAGCGAGGCAAAGUGGCUGUGGCUAGACUGCCUCUCUGGAUUCCUCGUCACUCAGCAGGGCAUCUCUGAGAGAAAUGCC [U23A U73A]	self-cleavage	1.16
UACGUAGGUGGUUUUCCCCUGAUAGUGCUAAGGGGGCCUGGAAGUUUGGACUGGGCAGAGCUCAACACAGCAUGGCAAAGUGGCUGUGGCUAGUCUGCCUCUCUGGAUUCCUCGUCACUCAGCAGGGCAUCUCUGAGAGAAAUGCC [G72A A94U]	self-cleavage	0.06
UACGUAGGCGGUUUUCACCUGAUAGUGCUAAGGGGGCCUGGAAGUUUGGACUGGGCAGAGCUCAACACAGCGUGGCAAAGUGGCUGUGGCUAGACUGCCUCUCUGGAUUCCUCGUCACUCAGCAGGGCAUCUCUGAGAGAAAUGCC [U9C C17A]	self-cleavage	1.31
UACGUAGGUGGUUUUCCCCUGAUAGUGCUAAGGGGGCCUGGAAGUUUGGCCUGGGCAGAGCUCAACACAGCGUGGCAAAGUGGCUGUGGCCAGACUGCCUCUCUGGAUUCCUCGUCACUCAGCAGGGCAUCUCUGAGAGAAAUGCC [A50C U91C]	self-cleavage	0.48

Values were extracted from the RNAGym collection of RNA variant scans (doi:10.7554/elife.90254).
